# assayProcedure: in vitro
# testSettings: human, Caco-2
Papp A→B at 2 h, 10 µM values for the molecules below.
Field format: number, assumed ×10⁻⁶ cm/s, no unit text.

Worked examples, 3 molecules total:
molecule | Papp A→B at 2 h, 10 µM / ×10⁻⁶ cm/s
CC[C@]1(O)C[C@@H]2CN(CCc3c([nH]c4ccccc34)[C@@](C(=O)OC)(c3cc4c(cc3OC)N(C)[C@H]3[C@@](O)(C(=O)OC)[C@H](OC(C)=O)[C@]5(CC)C=CCN6CC[C@]43[C@@H]65)C2)C1 [VINBLASTINE] | 1
CCCCC(=O)N(Cc1ccc(-c2ccccc2-c2nnn[nH]2)cc1)[C@H](C(=O)O)C(C)C | 0.4
OC(Cn1cncn1)(Cn1cncn1)c1ccc(F)cc1F [FLUCONAZOLE] | 11.6

Kindly consider the entry below.
Measured Papp A→B at 2 h, 10 µM, COc1cc2nc(N3CCN(C(=O)c4ccco4)CC3)nc(N)c2cc1OC [PRAZOSIN] : 6.2

---

# System: MDCK
# assayProcedure: Efflux ratio of permeability from basolateral to apical over apical to basolateral side of MDCK cells expressing MDR1
# Type: ADME, cell-based, Canis lupus familiaris
# testSettings: dog
parameter: Ratio
Lab note: write the figure by itself, no unit.

Reference set, count: 4
compound | assayedTarget | endpointResult
COc1ccc([C@@H]2Sc3ccccc3N(CCN(C)C)C(=O)[C@@H]2OC(C)=O)cc1 | MDCK | 0.8
CC(C)n1c(/C=C/C(O)CC(O)CC(=O)O)c(-c2ccc(F)cc2)c2ccccc21 (stereo not given) | MDCK | 4.9
COc1cc([C@@H]2c3cc4c(cc3[C@@H](O[C@@H]3O[C@@H]5CO[C@@H](C)O[C@H]5[C@H](O)[C@H]3O)[C@H]3COC(=O)[C@H]23)OCO4)cc(OC)c1O [ETOPOSIDE] | MDCK | 11
C=CCN1CC[C@]23c4c5ccc(O)c4O[C@H]2C(=O)CC[C@@]3(O)[C@H]1C5 | MDCK | 0.7

Now turn to the next compound.
The reported Ratio of the compound C[C@H]1O[C@@H](O[C@H]2[C@@H](O)C[C@H](O[C@H]3[C@@H](O)C[C@H](O[C@H]4CC[C@@]5(C)[C@H](CC[C@@H]6[C@@H]5C[C@@H](O)[C@]5(C)[C@@H](C7=CC(=O)OC7)CC[C@]65O)C4)O[C@@H]3C)O[C@@H]2C)C[C@H](O)[C@@H]1O was 27

---

# assayProcedure: clinical
# testSettings: human, in vivo
# Description: Fraction absorbed in human
parameter: Fa (%)
The answer is to be given in %; state only the numeric part.

Solved entries (count: 2):
chemSmiles | endpointResult
O=C1CN(/N=C/c2ccc([N+](=O)[O-])o2)C(=O)N1 | 100
CC[C@@]1(O)C(=O)OCc2c1cc1n(c2=O)Cc2cc3c(CN(C)C)c(O)ccc3nc2-1 | 30

Here is another compound to look at.
For record CC[C@H]1OC(=O)[C@H](C)[C@@H](O[C@H]2C[C@@](C)(OC)[C@@H](O)[C@H](C)O2)[C@H](C)[C@@H](O[C@@H]2O[C@H](C)C[C@H](N(C)C)[C@H]2O)[C@](C)(OC)C[C@@H](C)C(=O)[C@H](C)[C@@H](O)[C@]1(C)O the listed Fa is 50
